test system: rodent lifetime carcinogenesis bioassay, tumor incidence TD50; assay: carcinogenic potency in animals, long-term in vivo studies, CPDB compilation (AID 1745844); settings: mouse; strain B6C3F1; males; oral dosing; site: liver; lesion: several types; types named in the paper; dosed 76 weeks; study length 76 weeks
Active and inactive are the calls of the source. The rule behind the calls is not given here.

smiles_string: Oc1c(Cl)cc(Cl)cc1Sc1cc(Cl)cc(Cl)c1O
TD50: 2.28 mg/kg/day (inactive)

###

tested on: rodent lifetime carcinogenesis bioassay, tumor incidence TD50; assay: carcinogenic potency in animals, long-term in vivo studies, CPDB compilation (AID 1745844); conditions: mouse; strain B6C3F1; males; by gavage; site: forestomach; lesion: squamous-cell carcinoma; dosed 103 weeks; study length 105 weeks

smiles_string: C=C(C)CCl
measurement_target: rodent lifetime carcinogenesis bioassay, tumor incidence TD50
TD50: 432 mg/kg/day

###

system: rodent lifetime carcinogenesis bioassay, tumor incidence TD50; assay: carcinogenic potency in animals, long-term in vivo studies, CPDB compilation (AID 1745844); conditions: rat; strain Fischer 344; females; by gavage; site: lung; lesion: several types; types named in the paper; dosed 40 weeks; study length 104 weeks

smiles_string: CCCCN(N=O)C(N)=O
TD50: 0.277 mg/kg/day

###

test system: rodent lifetime carcinogenesis bioassay, tumor incidence TD50; assay: carcinogenic potency in animals, long-term in vivo studies, CPDB compilation (AID 1745844); details: rat; strain Fischer; females; in feed; site: any site (literature study); lesion: malignant tumor; dosed 75 weeks; study length 75 weeks

smiles_string: COc1cc2c(cc1N)oc1ccccc12
TD50, mg/kg/day: 33.1

###

tested on: rodent lifetime carcinogenesis bioassay, tumor incidence TD50; test: carcinogenic potency in animals, long-term in vivo studies, CPDB compilation (AID 1745844); conditions: rat; strain Sprague-Dawley; males; i.p.; site: all sites; lesion: lymphoma; dosed 26 weeks; study length 61 weeks

smiles_string: CNNCc1ccc(C(=O)NC(C)C)cc1
measurement_target: rodent lifetime carcinogenesis bioassay, tumor incidence TD50
TD50: 2.51 mg/kg/day

###

Form field: TD50 (one value per entry).
test system: rodent lifetime carcinogenesis bioassay, tumor incidence TD50; assay: carcinogenic potency in animals, long-term in vivo studies, CPDB compilation (AID 1745844); conditions: mouse; strain Crj:BDF1; males; inhaled; site: liver; lesion: several types; types named in the paper; dosed 104 weeks; study length 104 weeks

smiles_string: ClC(Cl)=C(Cl)Cl
measurement_target: rodent lifetime carcinogenesis bioassay, tumor incidence TD50
TD50: 257 mg/kg/day

smiles_string: ClC(Cl)Cl
measurement_target: rodent lifetime carcinogenesis bioassay, tumor incidence TD50
TD50: 402 mg/kg/day

###

test system: rodent lifetime carcinogenesis bioassay, tumor incidence TD50; experiment: carcinogenic potency in animals, long-term in vivo studies, CPDB compilation (AID 1745844); conditions: monkey; strain Rhesus [Macaca mulatta]; both sexes; in feed; site: tongue; lesion: squamous-cell carcinoma; dosed 928 weeks; study length 1139 weeks

smiles_string: CN(N=O)C(N)=O
TD50 / mg/kg/day: 72.9

###

system: rodent lifetime carcinogenesis bioassay, tumor incidence TD50; experiment: carcinogenic potency in animals, long-term in vivo studies, CPDB compilation (AID 1745844); settings: rat; strain Wistar; males; in feed; site: small intestine; lesion: adenoma; dosed 52 weeks; study length 52 weeks

compound: O=P(O)(OCC(Br)CBr)OCC(Br)CBr (stereo unspecified)
TD50 [mg/kg/day]: 129

###

system: rodent lifetime carcinogenesis bioassay, tumor incidence TD50; test: carcinogenic potency in animals, long-term in vivo studies, CPDB compilation (AID 1745844); details: rat; strain Fischer 344; males; in feed; site: preputial gland; lesion: carcinoma + carcinoma, bilateral; dosed 103 weeks; study length 104 weeks
The source made the active and inactive calls. The rule behind the calls is not given here.
Form field: TD50 (one value per entry).
observed_property: TD50

smiles_string: O=C(O)c1ccc([N+](=O)[O-])cc1
val: 926 mg/kg/day (inactive)
//
smiles_string: COc1ccccc1[N+](=O)[O-]
val: 195 mg/kg/day

###

test system: rodent lifetime carcinogenesis bioassay, tumor incidence TD50; assay: carcinogenic potency in animals, long-term in vivo studies, CPDB compilation (AID 1745844); conditions: rat; strain Sprague-Dawley; males; i.p.; site: peritoneum; lesion: fibrosarcoma + fibroma + sarcoma, NOS; dosed 36 weeks; study length 80 weeks

smiles_string: CS(=O)(=O)OCCCNCCCOS(C)(=O)=O
TD50: 0.915 mg/kg/day

###

system: rodent lifetime carcinogenesis bioassay, tumor incidence TD50; assay: carcinogenic potency in animals, long-term in vivo studies, CPDB compilation (AID 1745844); details: rat; strain Fischer 344; males; inhaled; site: thyroid gland; lesion: follicular-cell adenoma + follicular-cell carcinoma; dosed 104 weeks; study length 104 weeks

smiles_string: C=CC(=C)Cl
TD50: 18.7 mg/kg/day

###

system: rodent lifetime carcinogenesis bioassay, tumor incidence TD50; experiment: carcinogenic potency in animals, long-term in vivo studies, CPDB compilation (AID 1745844); conditions: mouse; strain B6C3F1; females; in feed; site: uterus; lesion: endometrial stromal sarcoma; dosed 80 weeks; study length 90 weeks
observed_property: TD50 (mg/kg/day)

smiles_string: Cc1c([N+](=O)[O-])c(C)c([N+](=O)[O-])c(C(C)(C)C)c1[N+](=O)[O-]
measurement_target: rodent lifetime carcinogenesis bioassay, tumor incidence TD50
observed_property: TD50
val: 533

###

tested on: rodent lifetime carcinogenesis bioassay, tumor incidence TD50; assay: carcinogenic potency in animals, long-term in vivo studies, CPDB compilation (AID 1745844); details: rat; strain Wistar; males; in feed; site: liver; lesion: hepatocellular adenoma; dosed 78 weeks; study length 78 weeks
observed_property: TD50

compound: O=P(O)(OCC(Br)CBr)OCC(Br)CBr (stereo unspecified)
val: 28.3 mg/kg/day

###

test system: rodent lifetime carcinogenesis bioassay, tumor incidence TD50; experiment: carcinogenic potency in animals, long-term in vivo studies, CPDB compilation (AID 1745844); details: rat; strain Alpk:APfSD; males; by gavage; site: liver; lesion: hepatocellular adenoma; dosed 88 weeks; study length 107 weeks
observed_property: TD50

smiles_string: CC/C(=C(\c1ccccc1)c1ccc(OCCN(C)C)cc1)c1ccccc1
observed_property: TD50
val: 47.9 mg/kg/day

###

test system: rodent lifetime carcinogenesis bioassay, tumor incidence TD50; test: carcinogenic potency in animals, long-term in vivo studies, CPDB compilation (AID 1745844); conditions: rat; strain Sprague-Dawley; males; inhaled; site: liver; lesion: angioma; dosed 25 weeks; study length 115 weeks
observed_property: TD50 (mg/kg/day)

smiles_string: C=CCl
observed_property: TD50
val: 580

###

tested on: rodent lifetime carcinogenesis bioassay, tumor incidence TD50; test: carcinogenic potency in animals, long-term in vivo studies, CPDB compilation (AID 1745844); conditions: rat; strain Wistar; females; in feed; site: esophagus; lesion: squamous-cell papilloma; dosed 78 weeks; study length 78 weeks

compound: O=P(O)(OCC(Br)CBr)OCC(Br)CBr (stereo unspecified)
TD50: 107 mg/kg/day

###

tested on: rodent lifetime carcinogenesis bioassay, tumor incidence TD50; test: carcinogenic potency in animals, long-term in vivo studies, CPDB compilation (AID 1745844); conditions: mouse; strain B6C3F1; males; in feed; site: any site (literature study); lesion: benign tumor; dosed 78 weeks; study length 78 weeks
observed_property: TD50 (mg/kg/day)

smiles_string: CN1CCCC1=O
val: 1630

###

tested on: rodent lifetime carcinogenesis bioassay, tumor incidence TD50; assay: carcinogenic potency in animals, long-term in vivo studies, CPDB compilation (AID 1745844); settings: mouse; strain B6C3F1; females; by gavage; site: all sites; lesion: hemangioma + hemangiosarcoma; dosed 103 weeks; study length 104 weeks
observed_property: TD50 (mg/kg/day)

smiles_string: O=C1CCc2ccccc2O1
val: 4810

###

tested on: rodent lifetime carcinogenesis bioassay, tumor incidence TD50; experiment: carcinogenic potency in animals, long-term in vivo studies, CPDB compilation (AID 1745844); settings: mouse; strain ICR; both sexes; in drinking water; site: liver; lesion: hepatoma; dosed 57 weeks; study length 57 weeks

smiles_string: Nc1ccc(N=Nc2ccc(-c3ccc(N=Nc4c(S(=O)(=O)O)cc5cc(S(=O)(=O)O)c(N=Nc6ccccc6)c(O)c5c4N)cc3)cc2)c(N)c1
TD50: 71.6 mg/kg/day

###

test system: rodent lifetime carcinogenesis bioassay, tumor incidence TD50; experiment: carcinogenic potency in animals, long-term in vivo studies, CPDB compilation (AID 1745844); conditions: mouse; strain B6C3F1; females; inhaled; site: all sites; lesion: hemangioma; dosed 103 weeks; study length 104 weeks
observed_property: TD50

compound: CC1CO1 (stereo unspecified)
val: 1810 mg/kg/day

###

test system: rodent lifetime carcinogenesis bioassay, tumor incidence TD50; experiment: carcinogenic potency in animals, long-term in vivo studies, CPDB compilation (AID 1745844); details: rat; strain Fischer 344; females; by gavage; site: liver; lesion: several types; types named in the paper; dosed 40 weeks; study length 95 weeks
observed_property: TD50

compound: CC(O)CN(N=O)C(=O)NCCCl (stereo unspecified)
val: 0.885 mg/kg/day

This collection of values is drawn from PubChem BioAssay AID1745844.
